Target: C-CBL (46-435) (Homo sapiens, UniProt P22681)
Construct: N-terminal biotinylated WT CBL-B (36-427) and C-CBL (46-435) were captured on a streptavidin (SA) coated sensor chip
Sequence (P22681 46-435): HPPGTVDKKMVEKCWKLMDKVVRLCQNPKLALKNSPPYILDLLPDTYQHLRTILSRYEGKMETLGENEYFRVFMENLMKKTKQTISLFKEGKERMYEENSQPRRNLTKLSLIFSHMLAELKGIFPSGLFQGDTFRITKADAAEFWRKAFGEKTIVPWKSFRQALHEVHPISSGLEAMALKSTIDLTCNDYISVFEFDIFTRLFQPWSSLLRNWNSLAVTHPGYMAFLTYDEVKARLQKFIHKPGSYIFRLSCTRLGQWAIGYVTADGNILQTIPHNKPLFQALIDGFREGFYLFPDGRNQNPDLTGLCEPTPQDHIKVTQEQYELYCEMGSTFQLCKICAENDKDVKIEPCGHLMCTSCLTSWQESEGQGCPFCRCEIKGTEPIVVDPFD
Assay: Surface Plasmon Resonance (SPR) assay, binding affinity and kinetics, C-CBL
Conditions: SPR at 10° C., biotinylated C-CBL (46-435) on streptavidin chip; geometric mean; read-out: C-CBL SPR Kd (nM) GMean
VALUE_KIND: Kd (nM)

{"MOLECULE": "C[C@H](N[C@@H]1CCC(F)(F)C1)c1nc(C(F)(F)F)cc2c(-c3cccc(C4(Cc5nncn5C)COC4)c3)n[nH]c12 (single isomer, unassigned)", "OBSERVED_MEASUREMENT": 28.3}
{"MOLECULE": "C[C@H](N[C@H]1CCC[C@@H]1O)c1nc(C(F)(F)F)cc2c(-c3cccc([C@H](c4nncn4C)C4CCC4)c3)n[nH]c12 (single isomer, unassigned)", "OBSERVED_MEASUREMENT": 7.2}
{"MOLECULE": "CC(c1nc(C(F)(F)F)cc2c(-c3cccc(C4(Cc5nncn5C)COC4)c3)n[nH]c12)N1CCC[C@H](C)C1 (single isomer, unassigned) [Example C19]", "OBSERVED_MEASUREMENT": 51.3}
{"MOLECULE": "C[C@@H](c1nc(C(F)(F)F)cc2c(-c3cccc(C4(Cc5nncn5C)COC4)c3)n[nH]c12)N1CC[C@H](F)C1 (single isomer, unassigned) [Example D98]", "OBSERVED_MEASUREMENT": 217}
{"MOLECULE": "C[C@@H](c1nc(C(F)(F)F)cc2c(-c3cccc(C4(Cc5nncn5C)COC4)c3)n[nH]c12)N1CCC1 (single isomer, unassigned)", "OBSERVED_MEASUREMENT": 50.8}
